B1: Transitional endoplasmic reticulum ATPase, residues 26 to 106; numbered along this chain, P55072 (parent)
chain: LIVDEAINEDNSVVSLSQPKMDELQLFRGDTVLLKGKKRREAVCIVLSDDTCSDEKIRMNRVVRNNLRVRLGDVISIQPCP

variants of: B1; assay: abundance fitness (aPCA) (normalised: wild type 0, dead -1); higher = more abundant; growth selection in yeast, the domain comes from the species named; conditions: Homo sapiens
Mark false for abundance fitness values under -0.05, and true for everything at or above.

>>> answer_label("L34R")
"false"
>>> answer_label("L33M")
"true"
>>> answer_label("S12C")
"false"
>>> answer_label("R64K")
"false"
>>> answer_label("I57P")
"false"
>>> answer_label("T31C")
"false"
>>> answer_label("I77K")
"false"
>>> answer_label("K38S")
"false"
>>> answer_label("F27K")
"true"
>>> answer_label("E23A")
"false"
>>> answer_label("V69S")
"false"
>>> answer_label("N65H")
"true"
>>> answer_label("S15F")
"true"
>>> answer_label("N60S")
"true"
>>> answer_label("N11W")
"false"
>>> answer_label("N60F")
"false"
>>> answer_label("R39M")
"false"
>>> answer_label("S76R")
"true"
>>> answer_label("E55D")
"false"
>>> answer_label("C52S")
"false"
>>> answer_label("L24E")
"false"
>>> answer_label("N60C")
"false"
>>> answer_label("D73T")
"false"
>>> answer_label("D4A")
"true"
>>> answer_label("I2S")
"false"
>>> answer_label("L1S")
"false"
>>> answer_label("Q18Y")
"false"
>>> answer_label("N66H")
"false"
>>> answer_label("L34F")
"false"
>>> answer_label("L24D")
"false"
>>> answer_label("K35Y")
"false"
>>> answer_label("I75W")
"false"
>>> answer_label("R39K")
"true"
>>> answer_label("I7M")
"true"
>>> answer_label("S53K")
"true"
>>> answer_label("D30N")
"false"
>>> answer_label("E55G")
"true"
>>> answer_label("S53E")
"true"
>>> answer_label("V74K")
"true"
>>> answer_label("E9C")
"true"
>>> answer_label("D22G")
"false"
>>> answer_label("D10H")
"true"
>>> answer_label("V62W")
"true"
>>> answer_label("A42N")
"false"
>>> answer_label("R61S")
"true"
>>> answer_label("P79T")
"false"
>>> answer_label("L67I")
"false"
>>> answer_label("N11F")
"false"
>>> answer_label("L71P")
"false"
>>> answer_label("R58L")
"true"
>>> answer_label("V62L")
"true"
>>> answer_label("L1G")
"false"
>>> answer_label("I57K")
"false"
>>> answer_label("V13D")
"false"
>>> answer_label("A42E")
"false"
>>> answer_label("L26H")
"false"
>>> answer_label("K38W")
"true"
>>> answer_label("V14Y")
"false"
>>> answer_label("S15W")
"false"
>>> answer_label("T31F")
"false"
>>> answer_label("R28T")
"true"
>>> answer_label("L67G")
"false"
>>> answer_label("S76Q")
"true"
>>> answer_label("V43K")
"true"
>>> answer_label("G72E")
"false"
>>> answer_label("T51C")
"false"
>>> answer_label("R40Q")
"true"
>>> answer_label("R39D")
"true"
>>> answer_label("V14D")
"false"
>>> answer_label("V3C")
"false"
>>> answer_label("D22S")
"false"
>>> answer_label("F27D")
"true"
>>> answer_label("V63P")
"false"
>>> answer_label("E41H")
"false"
>>> answer_label("L16I")
"true"
>>> answer_label("I77G")
"false"
>>> answer_label("F27E")
"true"
>>> answer_label("V3Q")
"false"
>>> answer_label("K56C")
"true"
>>> answer_label("N60P")
"true"
>>> answer_label("K56P")
"false"
>>> answer_label("R39Y")
"false"
>>> answer_label("L47R")
"true"
>>> answer_label("K56L")
"true"
>>> answer_label("S17P")
"false"
>>> answer_label("K20L")
"true"
>>> answer_label("L47T")
"false"
>>> answer_label("D30L")
"false"
>>> answer_label("V43L")
"false"
>>> answer_label("E41Q")
"false"
